system: Plasmodium falciparum; assay: In vitro inhibitory activity for Plasmodium falciparum; assay type: functional, organism-based
Label Met when IC50 is strictly below 90 nM; at or above that, label Not met.

Answered examples (2):
N=C(NO)c1ccc(-c2ccc(-c3cn4cc(/C(N)=N/O)ccc4n3)o2)cc1    Not met
CONC(=N)c1ccc(-c2ccc(-c3cn4cc(C(=N)NOC)ccc4n3)cc2)cc1    Not met

Here's an entry: `N=C(NO)c1ccc(-c2ccc(-c3cn4cc(/C(N)=N/O)ccc4n3)cc2)cc1` . Is its IC50 below 90 nM?
Not met

Here's an entry: N=C(N)c1ccc(-c2cccc(-c3cn4c(n3)CCC(C(=N)N)C4)c2)cc1 (stereo not drawn) . Is its IC50 below 90 nM?
Met

Here's an entry: `N=C(N)c1ccc(-c2cccc(-c3cn4cc(C(=N)N)ccc4n3)c2)cc1` . Is its IC50 below 90 nM?
Not met

Here's an entry: `N=C(N)c1ccc(-c2ccc(-c3cn4cc(C(=N)N)ccc4n3)o2)cc1` . Is its IC50 below 90 nM?
Met

Here's an entry: N=C(N)c1ccc(-c2ccc(-c3cn4c(n3)CCC(C(=N)N)C4)cc2)cc1 (stereo not drawn) . Is its IC50 below 90 nM?
Met

Here's an entry: `Cc1cc(C(=N)N)cn2cc(-c3cccc(-c4ccc(C(=N)N)cc4)c3)nc12` . Is its IC50 below 90 nM?
Met

Here's an entry: `N=C(N)c1ccc(-c2ccc(-c3cn4cc(C(=N)N)ccc4n3)cc2)cc1` . Is its IC50 below 90 nM?
Met

Here's an entry: N=C(N)c1ccc(-c2ccc(-c3cn4c(n3)CCC(C(=N)N)C4)o2)cc1 (stereo not drawn) . Is its IC50 below 90 nM?
Not met

Here's an entry: `CONC(=N)c1ccc(-c2ccc(-c3ccc(C(=N)NOC)cc3)o2)cc1` . Is its IC50 below 90 nM?
Met

Here's an entry: `CONC(=N)c1ccc(-c2ccc(-c3cn4cc(C(=N)NOC)ccc4n3)o2)cc1` . Is its IC50 below 90 nM?
Not met

----------
Reported ΔTm values for a set of compounds
tested on: Nucleic Acid; test: In vitro binding affinity towards Poly (dA-dT)2; format: nucleic-acid assay
Lab note: jot down the number only; don't add units.

For orientation, consider the following solved cases.
CONC(=N)c1ccc(-c2ccc(-c3cn4cc(C(=N)NOC)ccc4n3)cc2)cc1    0.3
N=C(N)c1ccc(-c2ccc(-c3cn4c(n3)CCC(C(=N)N)C4)cc2)cc1 (stereo not given)    21.3
N=C(N)c1ccc(-c2ccc(-c3cn4c(n3)CCC(C(=N)N)C4)o2)cc1 (stereo not given)    15.6

Answer with the recorded ΔTm for the compound listed here: N=C(N)c1ccc(-c2cccc(-c3cn4c(n3)CCC(C(=N)N)C4)c2)cc1 (stereo not given)
19.1

Answer with the recorded ΔTm for the compound listed here: `N=C(N)c1ccc(-c2ccc(-c3cn4cc(C(=N)N)ccc4n3)o2)cc1`
26.2

Answer with the recorded ΔTm for the compound listed here: CONC(=N)c1ccc(-c2ccc(-c3ccc(C(=N)NOC)cc3)o2)cc1 [PAFURAMIDINE]
25

Answer with the recorded ΔTm for the compound listed here: `N=C(N)c1ccc(-c2ccc(-c3cn4cc(C(=N)N)ccc4n3)cc2)cc1`
24.2
